Cited source for all entries: the supplement of paper PMC10567573

B1: SNURF (parent)
chain: QVPVVDFQAELRQAFLAETPRGG

Variants of: B1
testName: protein stability index of a GFP-peptide fusion (GPS, HEK-293T) (PSI 1-6); higher = more stable;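 further: lentivirally expressed fusions sorted by FACS into six bins by GFP to DsRed ratio, PSI derived from sequencing read proportions per bin multiplied by bin number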
measurementSetup: c terminus: native
Assign protein stability index to each entry below.

Ask | Need protein stability index, item QVPVVDFQAELRQAFHAETPRGG [L16H]
Reply | 2.13

Ask | Which value of protein stability index has been reported for QVPVVDFQAELRQAFLAETPREG [G22E] in the records?
Reply | 3.26

Ask | Request the reported protein stability index associated with QVPVVDFQAELRQAFPAETPRGG [L16P]
Reply | 3.02

Ask | Fill blank: measured protein stability index of the variant QVPVVDFQAELRQAFLAEFPRGG [T19F] is ____.
Reply | 2.29

Ask | Consider the variant shown here: NVPVVDFQAELRQAFLAETPRGG [Q1N] What is its recorded protein stability index?
Reply | 2.49

Ask | # protein stability index lookup, item QVPVVDFQAELRQLFLAETPRGG [A14L]
Reply | 3.5

Ask | Fill in: protein stability index of QVPVVDFQAELRQDFLAETPRGG [A14D] is ___
Reply | 2.99
